- study target: μ-opioid receptor (Homo sapiens (Human), UniProt P35372)
- assay details: μ-opioid receptor [35S]GTPγS functional assay, HEK-293 or CHO cells
- Assay type: biochemical
EC50 strictly under 5 nM means Fulfilled; at 5 nM or over means Not fulfilled.

Q: Given the entry C[C@H](NC(=O)c1cc2c([nH]c1=O)C[C@]13CCN(CC4CC4)[C@H](Cc4ccc(O)cc41)[C@@H]3C2)C(N)=O [Compound 22] , would its reported EC50 be below 5 nM?
Result: Fulfilled

---

- study target: κ-opioid receptor (Homo sapiens (Human), UniProt P41145)
- assay details: κ-opioid receptor [35S]GTPγS functional assay, U-2 OS cells
- Type: biochemical
- stated conditions: relative to U69,593; U-2 OS cells
Emax reference
Write it as a number; the unit % goes unstated.

{"columns": ["smiles entry", "Emax [%]"],
 "data": [
  ["CN1CC[C@]23Cc4[nH]c(=O)c(C(=O)N[C@@H](Cc5ccccc5)C(N)=O)cc4C[C@@]2(O)[C@H]1Cc1ccc(O)cc13", 39.3]
]}

Q: API: value(readout=Emax, system=κ-opioid receptor (Homo sapiens (Human), UniProt P41145)) for record COc1ccc2c(c1)[C@]13CCN(C)[C@H](C2)[C@]1(O)Cc1cc(C(=O)O)c(=O)[nH]c1C3
Result: 96

Q: API: value(readout=Emax, system=κ-opioid receptor (Homo sapiens (Human), UniProt P41145)) for record CN(C)C(=O)c1cc2c([nH]c1=O)C[C@]13CCN(C)[C@H](Cc4ccc(O)cc41)[C@]3(O)C2
Result: 73

Q: API: value(readout=Emax, system=κ-opioid receptor (Homo sapiens (Human), UniProt P41145)) for record CN1CC[C@]23Cc4[nH]c(=O)c(C(=O)NCC5CCCCC5)cc4C[C@@]2(O)[C@H]1Cc1ccc(O)cc13
Result: 67

Q: API: value(readout=Emax, system=κ-opioid receptor (Homo sapiens (Human), UniProt P41145)) for record COC(=O)c1cc2c([nH]c1=O)C[C@]13CCN(Cc4ccccc4)[C@H](Cc4ccc(OC)cc41)[C@]3(O)C2
Result: 1

Q: API: value(readout=Emax, system=κ-opioid receptor (Homo sapiens (Human), UniProt P41145)) for record COc1ccc2c(c1)[C@]13CCN[C@H](C2)[C@]1(O)Cc1cc(C(N)=O)c(=O)[nH]c1C3
Result: 6.7

Q: API: value(readout=Emax, system=κ-opioid receptor (Homo sapiens (Human), UniProt P41145)) for record NC(=O)c1cc2c([nH]c1=O)C[C@]13CCN(CC(F)(F)F)[C@H](Cc4ccc(O)cc41)[C@]3(O)C2
Result: 0

Q: API: value(readout=Emax, system=κ-opioid receptor (Homo sapiens (Human), UniProt P41145)) for record CC(C)CCNC(=O)c1cc2c([nH]c1=O)C[C@]13CCN(C)[C@H](Cc4ccc(O)cc41)[C@]3(O)C2
Result: 63

Q: API: value(readout=Emax, system=κ-opioid receptor (Homo sapiens (Human), UniProt P41145)) for record O=C(c1ccccc1)c1cc2c([nH]c1=O)C[C@]13CCN(CC4CC4)[C@H](Cc4ccc(O)cc41)[C@]3(O)C2
Result: 16.8

Q: API: value(readout=Emax, system=κ-opioid receptor (Homo sapiens (Human), UniProt P41145)) for record CN1CC[C@]23Cc4[nH]c(=O)c(C(=O)N5CCCC5)cc4C[C@@]2(O)[C@H]1Cc1ccc(O)cc13
Result: 90.3

Q: API: value(readout=Emax, system=κ-opioid receptor (Homo sapiens (Human), UniProt P41145)) for record CN1CC[C@]23Cc4[nH]c(=O)c(C(=O)O)cc4C[C@@]2(O)[C@H]1Cc1ccc(O)cc13
Result: 70

Q: API: value(readout=Emax, system=κ-opioid receptor (Homo sapiens (Human), UniProt P41145)) for record NC(=O)c1cc2c([nH]c1=O)C[C@]13CCN(CCc4ccccc4)[C@H](Cc4ccc(O)cc41)[C@]3(O)C2
Result: 11.3

Q: API: value(readout=Emax, system=κ-opioid receptor (Homo sapiens (Human), UniProt P41145)) for record CN1CC[C@]23Cc4[nH]c(=O)c(C(=O)NCc5ccccc5)cc4C[C@@]2(O)[C@H]1Cc1ccc(O)cc13
Result: 94.3

Q: API: value(readout=Emax, system=κ-opioid receptor (Homo sapiens (Human), UniProt P41145)) for record NC(=O)c1cc2c([nH]c1=O)C[C@]13CCN(CCF)[C@H](Cc4ccc(O)cc41)[C@]3(O)C2
Result: 66
